For each record, write down the corresponding log10 of IC50.
# measuredTarget: human DGAT2 (Homo sapiens, UniProt Q96PD7)
# Construct: FLAG (DYKDDDDK); membrane fraction used
# Sequence (Q96PD7 1-388): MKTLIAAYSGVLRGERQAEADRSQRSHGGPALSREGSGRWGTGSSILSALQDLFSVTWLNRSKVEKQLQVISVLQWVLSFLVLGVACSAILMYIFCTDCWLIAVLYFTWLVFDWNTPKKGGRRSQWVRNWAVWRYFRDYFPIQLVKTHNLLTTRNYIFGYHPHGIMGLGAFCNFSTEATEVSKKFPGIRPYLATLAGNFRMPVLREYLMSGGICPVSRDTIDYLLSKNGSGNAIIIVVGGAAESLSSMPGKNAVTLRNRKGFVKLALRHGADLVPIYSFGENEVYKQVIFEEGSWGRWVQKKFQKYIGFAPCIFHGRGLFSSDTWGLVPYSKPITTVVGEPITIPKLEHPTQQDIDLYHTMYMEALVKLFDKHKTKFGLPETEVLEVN
# procedureDetails: DGAT2 enzyme activity inhibition, Phospholipid FlashPlate SPA
# runConditions: recombinant human DGAT2 membrane protein from Sf-21 cells; inhibition of [14C]-TG production; 37° C.
Friendly reminder: values = log10 of IC50, unit nM.

[
  {
    "lineNotation": "CCOc1cccnc1O[C@@H]1CCCN(c2cncc(Nc3ccnc(-c4ccc(CC(C)(C)C(=O)O)cc4)n3)n2)C1",
    "measuredTarget": "human DGAT2 (Homo sapiens, UniProt Q96PD7)",
    "log10 of IC50": 2.34
  }
]

Go through the list and state log10 of IC50 for each entry.
1. CCOc1cc(F)ccc1O[C@@H]1CCCN(c2cncc(Nc3cccc(-c4ccc(OC(C)(C)C(=O)O)cc4)n3)n2)C1
2. CCOc1ccccc1O[C@@H]1CCCN(c2cncc(Nc3nccc(N4CCC[C@@H](OCC(=O)O)C4)n3)n2)C1
3. CCOc1ccccc1O[C@@H]1CCCN(c2cncc(Nc3nccc(-c4ccc(NC(C)(C)C(=O)O)cc4)n3)n2)C1

OUT:
1. 2.58
2. 3.83
3. 2.28

Go through the list and state log10 of IC50 for each entry.
1. CCOc1ccccc1O[C@@H]1CCCN(c2cncc(Nc3ccc(C)c(-c4cccc(CC(C)(C)C(=O)O)c4)n3)n2)C1
2. CCOc1ccccc1O[C@@H]1CCCN(c2cncc(Nc3nccc(N4CCC[C@@H](CC(=O)O)C4)n3)n2)C1
3. CCOc1ccccc1O[C@@H]1CCCN(c2cncc(Nc3nnnn3C)n2)C1

OUT:
3.34
2.20
2.43

====

# measuredTarget: human DGAT2 (Homo sapiens, UniProt Q96PD7)
# Construct: FLAG (DYKDDDDK); membrane fraction used
# procedureDetails: DGAT2 enzyme activity inhibition, Phospholipid FlashPlate SPA
# runConditions: recombinant human DGAT2 membrane protein from Sf-21 cells; inhibition of [14C]-TG production; 37° C.
For each record, write down the corresponding pIC50.
One number for each entry, as −log10 of the molar value.

Known results for compounds:
[
  {
    "compound": "CCOc1ccccc1O[C@@H]1CCCN(c2cncc(Nc3cccc(-c4ccc(CC(C)(C)C(=O)O)cc4)n3)n2)C1",
    "pIC50": 6.85
  },
  {
    "compound": "CCOc1ccccc1O[C@@H]1CCCN(c2cncc(Nc3cc(-c4ccc(CC(C)(C)C(=O)O)cc4)ccn3)n2)C1",
    "pIC50": 6.11
  },
  {
    "compound": "CCOc1ccccc1O[C@@H]1CCCN(c2cncc(Nc3cc(-c4cccc(C(C)(C)C(=O)O)c4)ccn3)n2)C1",
    "pIC50": 5.43
  }
]

Go through the list and state pIC50 for each entry.
1. CCOc1ccccc1O[C@@H]1CCCN(c2cncc(Nc3cccc(N4CCC(C)(C(=O)O)C4)n3)n2)C1 (some centres unmarked)
2. CCOc1ccccc1O[C@@H]1CCCN(c2cncc(Nc3nc(-c4cccc(CC(C)(C)C(=O)O)c4)cc(C(F)(F)F)n3)n2)C1
3. CCOc1cccnc1O[C@@H]1CCCN(c2cncc(Nc3cccc(-c4cccc(OC(C)(C)C(=O)O)c4)n3)n2)C1
4. CCOc1ccccc1O[C@@H]1CCCN(c2nccc(Nc3nccc(-c4ccc(CC(C)(C)C(=O)O)cc4)n3)n2)C1

OUT:
6.29
6.17
6.70
6.26

====

For each record, write down the corresponding pIC50.
# measuredTarget: human DGAT2 (Homo sapiens)
# Construct: FLAG (DYKDDDDK); membrane fraction used
# Sequence (Q96PD7 1-388): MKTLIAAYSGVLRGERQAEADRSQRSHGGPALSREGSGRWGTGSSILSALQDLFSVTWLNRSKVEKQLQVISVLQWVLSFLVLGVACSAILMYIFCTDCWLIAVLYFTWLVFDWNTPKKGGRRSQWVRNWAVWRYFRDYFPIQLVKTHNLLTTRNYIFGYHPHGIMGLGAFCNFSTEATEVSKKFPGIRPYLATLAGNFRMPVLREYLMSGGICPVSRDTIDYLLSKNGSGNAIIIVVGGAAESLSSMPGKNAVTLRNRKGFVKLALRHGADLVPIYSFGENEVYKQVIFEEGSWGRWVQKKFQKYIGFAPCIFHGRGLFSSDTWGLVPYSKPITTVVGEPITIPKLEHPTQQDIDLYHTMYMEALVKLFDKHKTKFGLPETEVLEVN
# procedureDetails: DGAT2 enzyme activity inhibition, Phospholipid FlashPlate SPA
# runConditions: recombinant human DGAT2 membrane protein from Sf-21 cells; inhibition of [14C]-TG production; 37° C.
Give bare numbers, as −log10 of the molar value.

[
  {
    "compound": "CCOc1cccnc1O[C@@H]1CCCN(c2cncc(Nc3ccc(F)c(-c4cccc(OC(C)(C)C(=O)O)c4)n3)n2)C1 [Example 105]",
    "readoutKind": "pIC50",
    "obsValue": 6.30
  },
  {
    "compound": "CCOc1ccccc1O[C@@H]1CCCN(c2cncc(Nc3cccc(N4CCC(C(C)(C)C(=O)O)CC4)n3)n2)C1 [Example 58]",
    "readoutKind": "pIC50",
    "obsValue": 6.51
  },
  {
    "compound": "CCOc1cccnc1O[C@@H]1CCCN(c2cncc(Nc3nccc(-c4cccc(C(C)(C)C(=O)O)c4)n3)n2)C1 [Example 142]",
    "readoutKind": "pIC50",
    "obsValue": 6.42
  }
]

Go through the list and state pIC50 for each entry.
1. CCOc1ccccc1O[C@@H]1CCCN(c2ccnc(Nc3cccc(-c4cccc(CC(C)(C)C(=O)O)c4)n3)n2)C1 [Example 67]
2. CCOc1cccnc1O[C@@H]1CCCN(c2cncc(Nc3nccc(-c4ccc(CC(=O)O)cc4)n3)n2)C1 [Example 152]
3. CCOc1ccccc1O[C@@H]1CCCN(c2cncc(Nc3cccc(C(C)(C)C(=O)O)c3)n2)C1 [Example 29]

OUT:
1: 5.62; 2: 6.09; 3: 5.19

====

# measuredTarget: human DGAT2 (Homo sapiens)
# Construct: FLAG (DYKDDDDK); membrane fraction used
# procedureDetails: DGAT2 enzyme activity inhibition, Phospholipid FlashPlate SPA
# runConditions: recombinant human DGAT2 membrane protein from Sf-21 cells; inhibition of [14C]-TG production; 37° C.
pIC50: −log10 of the molar value.
Assign class by pIC50: not lower than 6 means y; lower than 6 means n.

Check out these entries, answers already filled in.
[
  {
    "compound": "CCOc1cccnc1O[C@@H]1CCCN(c2cncc(Nc3nc(-c4cccc(CC(C)(C)C(=O)O)c4)cc(C(F)(F)F)n3)n2)C1 [Example 166]",
    "assignedLabel": "y"
  },
  {
    "compound": "CCOc1ccccc1O[C@@H]1CCCN(c2cncc(Nc3ccnc(-c4cccc(OC(C)(C)C(=O)O)c4)n3)n2)C1 [Example 174]",
    "assignedLabel": "y"
  }
]

IN: Answer whether pIC50 of CCOc1ccccc1O[C@@H]1CCCN(c2cncc(Nc3cc[nH]n3)n2)C1 [Example 19] is greater than or equal to 6.
OUT: n

IN: Answer whether pIC50 of CCOc1ccccc1O[C@@H]1CCCN(c2cncc(Nc3nccc(N4CCC(CC(=O)O)CC4)n3)n2)C1 [Example 125] is greater than or equal to 6.
OUT: n

====

For each record, write down the corresponding IC50.
# measuredTarget: human DGAT2 (Homo sapiens)
# Construct: FLAG (DYKDDDDK); membrane fraction used
# procedureDetails: DGAT2 enzyme activity inhibition, Phospholipid FlashPlate SPA
# runConditions: recombinant human DGAT2 membrane protein from Sf-21 cells; inhibition of [14C]-TG production; 37° C.
One number for each entry, in nM.

Known results for compounds:
[
  {
    "compound": "CCOc1ccccc1O[C@@H]1CCCN(c2ccnc(Nc3cccc(-c4ccc(NCC(=O)O)cc4)n3)n2)C1",
    "measuredTarget": "human DGAT2 (Homo sapiens)",
    "readoutUnits": "nM",
    "IC50": 300
  },
  {
    "compound": "CCOc1ccccc1O[C@@H]1CCCN(c2cncc(Nc3cccc(-c4cnn(CC(C)(C)C(=O)O)c4)n3)n2)C1",
    "measuredTarget": "human DGAT2 (Homo sapiens)",
    "readoutUnits": "nM",
    "IC50": 300
  },
  {
    "compound": "CCOc1ccccc1O[C@@H]1CCCN(c2cncc(Nc3nccc(-c4cccc(OC(C)(C)C(=O)O)c4)n3)n2)C1 [Example 176]",
    "measuredTarget": "human DGAT2 (Homo sapiens)",
    "readoutUnits": "nM",
    "IC50": 590
  },
  {
    "compound": "CCOc1ccccc1O[C@@H]1CCCN(c2cncc(Nc3nccc(N4CCC[C@@H](C(=O)O)C4)n3)n2)C1",
    "measuredTarget": "human DGAT2 (Homo sapiens)",
    "readoutUnits": "nM",
    "IC50": 590
  },
  {
    "compound": "CCOc1cccnc1O[C@@H]1CCCN(c2cncc(Nc3nccc(O[C@H]4CC[C@H](C(=O)O)CC4)n3)n2)C1",
    "measuredTarget": "human DGAT2 (Homo sapiens)",
    "readoutUnits": "nM",
    "IC50": 300
  },
  {
    "compound": "CCOc1cccnc1O[C@@H]1CCCN(c2cncc(Nc3cccc(Oc4cccc(C(=O)O)c4)n3)n2)C1",
    "measuredTarget": "human DGAT2 (Homo sapiens)",
    "readoutUnits": "nM",
    "IC50": 1300
  }
]

Now for a further compound.
The recorded IC50 for entry "CCOc1cccnc1O[C@@H]1CCCN(c2cncc(Nc3nc(-c4cc(CC(C)(C)C(=O)O)ccc4F)ccc3F)n2)C1" equals 350
